test target: T1, recombinant extracellular domain of CD47 (UniProt Q08722 19-139, limits assumed)
T1 construct: extracellular domain; Analyte flowed over the captured antibodies in SPR; also called CD47-ECD
T1 sequence (Q08722 19-139 limits assumed): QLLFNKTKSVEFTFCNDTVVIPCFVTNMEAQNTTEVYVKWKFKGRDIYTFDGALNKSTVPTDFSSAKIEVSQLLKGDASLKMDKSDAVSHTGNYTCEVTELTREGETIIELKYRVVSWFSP
protocol text: SPR; antibody captured on anti-human Fc, CD47-ECD flowed 0-100 nM; 1:1 Langmuir
Below, each entry is listed alongside its reported koff.
Please reply with the bare figure in s⁻¹ and do not write the unit itself.

Exam item: Respond only with koff recorded for Ab480/Ab1120 (antibody, V domains shown, FR and CDR L2 variant; Label printed HC first although the head says LC/HC; also called HC Ab480 / LC Ab1120) VH: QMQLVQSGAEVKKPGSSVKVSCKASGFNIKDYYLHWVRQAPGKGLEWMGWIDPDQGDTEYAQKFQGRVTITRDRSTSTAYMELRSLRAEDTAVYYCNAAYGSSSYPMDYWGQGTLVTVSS VL: NIQMTQSPSSLSASVGDRVTITCRASQDIHRYLSWFQQKPGKVPKHLIYRYVRFVDGVPSRFSGSGSGTEFTLTISSLQPEDFATYYCLQYDEFPYTFGGGTKVEIK
Marked response: 0.00238

Exam item: Supply measured koff of AbParental (parental anti-CD47 antibody) (antibody, human IgG4 S228P, kappa, V domains shown, also called Parental LC-HC; parental antibody) VH: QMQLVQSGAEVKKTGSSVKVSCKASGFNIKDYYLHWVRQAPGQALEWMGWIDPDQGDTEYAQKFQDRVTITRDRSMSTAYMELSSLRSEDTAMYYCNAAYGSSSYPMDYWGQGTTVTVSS VL: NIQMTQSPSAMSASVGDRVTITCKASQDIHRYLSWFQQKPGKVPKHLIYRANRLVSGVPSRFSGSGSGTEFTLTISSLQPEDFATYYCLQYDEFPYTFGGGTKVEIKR in your reply.
Marked response: 0.00187

Exam item: Give the reported koff for this binder. Ab1119/Ab170 (antibody, V domains shown, Variant of AbParental; also called LC Ab1119 / HC Ab170) VH: QMQLVQSGAEVKKPGSSVKVSCKASGFNIKDYYLHWVRQAPGKGLEWMGWIDPDQGDTEYAQKFQGRVTITRDRSTSTAYMELRSLRSEDTAVYYCNAAYGSSSYPMDYWGQGTTVTVSS VL: NIQMTQSPSSLSASVGDRVTITCRASQDIHRYLSWFQQKPGKVPKHLIYRANRLVSGVPSRFSGSGSGTEFTLTISSLQPEDFATYYCLQYDEFPYTFGGGTKVEIK
Marked response: 0.00583
